All values here come from the supplement of paper PMC9112550.

test system: Escherichia coli TOP10; test: shrunken log2 fold change of peptide-encoding DNA abundance (4.5 h post-induction vs induction); higher = less antimicrobial activity (less host growth inhibition); settings: time post-induction: 4.5 h; library: site-saturation at positions 5, 18, 19, 20;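 further: peptides expressed intracellularly from a pBAD plasmid library in pooled LB shake-flask culture, induced with 0.3% L-arabinose, DNA abundance read by NGS, three biological replicates, DESeq2 with apeglm shrinkage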
Parameter threshold = -0.02. Response is Condition met when shrunken log2 fold change meets or exceeds it, else Condition not met.

Inquiry: Is it the case that RRIRIRPPRLPRPRPRPPDKPRP has shrunken log2 fold change reaching or exceeding -0.02?
Reply text: Condition not met

Inquiry: Is it the case that RRIRCRPPRLPRPRPRPCLSPRP has shrunken log2 fold change reaching or exceeding -0.02?
Reply text: Condition not met

Inquiry: Is it the case that RRIRLRPPRLPRPRPRPRYTPRP has shrunken log2 fold change reaching or exceeding -0.02?
Reply text: Condition not met

Inquiry: Is it the case that RRIRERPPRLPRPRPRPTFHPRP has shrunken log2 fold change reaching or exceeding -0.02?
Reply text: Condition not met

Inquiry: Is it the case that RRIRDRPPRLPRPRPRPTHNPRP has shrunken log2 fold change reaching or exceeding -0.02?
Reply text: Condition met

Inquiry: Is it the case that RRIRQRPPRLPRPRPRPNEGPRP has shrunken log2 fold change reaching or exceeding -0.02?
Reply text: Condition not met

Inquiry: Is it the case that RRIRQRPPRLPRPRPRPTPRPRP has shrunken log2 fold change reaching or exceeding -0.02?
Reply text: Condition met

Inquiry: Is it the case that RRIRYRPPRLPRPRPRPAHCPRP has shrunken log2 fold change reaching or exceeding -0.02?
Reply text: Condition met
